Data credit: patent US9631002B2

- Test system: carboxylation of FIXgla-PC reporter protein in HEK293 cells (reduction of KO to vitamin K)
- EXPERIMENT DESCRIPTION: Cell-based VKOR activity assay: recombinant VKOR/VKORH expressed in FIXgla-PC/HEK293 cells with KO and warfarin, carboxylated reporter by ELISA
- Set-up: species or system human
- STATED CONDITIONS: VKOR of the organism compared to human Y139F VKOR, cell-based carboxylation
MEASUREMENT KIND: Relative activity: Human Y139F

Platypus: duck-billed platypus VKOR, SEQ ID NO:16, lacks cysteines corresponding to 43 and 51 (protein, listed as Ornithorhynchus anatinus) MGAWVPTRSARVVGPRALGSRVATAVQPSAVDPDTRHDRIPSLRWGRGFGLVEMVLGPDSSLNQPNSVFGLLFYSLQLLLGCSRAPWTSVVLALSSLLSLAGSLYLAWILFFVLHDFCFVCITTYAINVGLALLNYRRLKQAQGKVMKYCDESSPASSLLERRFYSGGGLRNGGSAASFPFPPATGH = No
